Target: mu (μ) opioid receptor (Homo sapiens, UniProt P35372)
Sequence (P35372 whole entry): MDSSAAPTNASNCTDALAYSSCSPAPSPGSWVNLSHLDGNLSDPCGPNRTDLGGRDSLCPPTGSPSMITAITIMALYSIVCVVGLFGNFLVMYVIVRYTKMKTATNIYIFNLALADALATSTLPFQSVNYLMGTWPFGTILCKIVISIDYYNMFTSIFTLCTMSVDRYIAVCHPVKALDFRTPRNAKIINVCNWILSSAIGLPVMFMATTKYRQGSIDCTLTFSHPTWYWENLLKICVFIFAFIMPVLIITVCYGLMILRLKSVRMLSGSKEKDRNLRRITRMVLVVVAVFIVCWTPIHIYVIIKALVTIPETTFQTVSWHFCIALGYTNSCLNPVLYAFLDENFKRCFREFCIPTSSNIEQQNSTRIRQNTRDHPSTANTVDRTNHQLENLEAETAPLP
pIC50: −log10 of the molar value.

| sampleSmiles | targetSystem | pIC50 |
| --- | --- | --- |
| c1ccc(Oc2ccc(CN3CCC(c4c[nH]c5ncccc45)CC3)cc2)cc1 | mu (μ) opioid receptor (Homo sapiens, UniProt P35372) | 6.47 |

====

Target: human nociceptin receptor (ORL-1) (Homo sapiens, UniProt P41146)
Sequence (P41146 whole entry): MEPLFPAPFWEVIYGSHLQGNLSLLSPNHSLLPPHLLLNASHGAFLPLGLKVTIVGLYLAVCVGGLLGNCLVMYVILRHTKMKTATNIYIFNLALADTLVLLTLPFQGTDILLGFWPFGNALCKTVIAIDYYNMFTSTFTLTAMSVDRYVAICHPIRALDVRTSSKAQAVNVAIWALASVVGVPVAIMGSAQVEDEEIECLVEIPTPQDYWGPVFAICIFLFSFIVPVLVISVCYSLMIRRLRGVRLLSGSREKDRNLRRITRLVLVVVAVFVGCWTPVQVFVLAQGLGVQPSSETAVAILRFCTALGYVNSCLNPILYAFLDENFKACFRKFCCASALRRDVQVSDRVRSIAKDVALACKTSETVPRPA
pIC50: −log10 of the molar value.

| sampleSmiles | pIC50 |
| --- | --- |
| c1ccc2c(CN3CCC(c4c[nH]c5ncccc45)CC3)cccc2c1 | 6.09 |
